# Test system: EW-13 (Ewing's Sarcoma);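 also: after 72 h of two-drug dosing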
# ASSAY_METHOD_TEXT: Bliss excess, mean over the matrix (fraction); higher = more synergy
VALUE_TYPE: Bliss excess
Give your answer as a number; write no unit.

State the recorded Bliss excess for this entry: CCc1c2c(nc3ccc(O)cc13)-c1cc3c(c(=O)n1C2)COC(=O)[C@]3(O)CC [SN-38] + CN(C)CCCOc1ccc(-c2ccc3ncc4c(c3c2)n(C2CCOCC2)c(=O)n4C)cn1 [AZD0156] (first compound max 0.3 µM, 7x7, partner max 1 µM)
-0.0589

For CN(CCO)CC[C@H](CSc1ccccc1)Nc1ccc(S(=O)(=O)NC(=O)c2ccc(N3CCC([C@@H](O)c4ccccc4-c4ccc(Cl)cc4)CC3)cc2)cc1S(=O)(=O)C(F)(F)F [AZD4320] + CN(C)CCCOc1ccc(-c2ccc3ncc4c(c3c2)n(C2CCOCC2)c(=O)n4C)cn1 [AZD0156] (first compound max 1 µM, 7x7, partner max 1 µM) then?
-0.0303

What do you get for COc1cccc(OCCCN)c1-c1cc(Nc2cnc(C#N)cn2)n[nH]1 [Prexasertib] + C=CCn1c(=O)c2cnc(Nc3ccc(N4CCN(C)CC4)cc3)nc2n1-c1cccc(C(C)(C)O)n1 [AZD1775] (first compound max 1 µM, partner max 1 µM) ?
0.0788
